# procedure-summary: protein stability index of a GFP-peptide fusion (yeast GPS) (PSI 1-4); higher = more stable; sorted into four equal gates, so the index is relative within each strain
# run-conditions: ubr1∆
readout-name: protein stability index
Just the number, please.

Please report the recorded protein stability index for LGNVIVPNILSLDMNSM [NUT1] .
2.27

Bench note: what protein stability index did KAMDIPIGRHEELLAQY [SWP82] show?
2

// protein stability index lookup, key: ELEGSFNKSAELSRIEN [YCS4]
3.11

Which value of protein stability index has been reported for IEKWTANLLPARQFGYV [RPS22A] in the records?
2.14

What does the data say about its protein stability index? Entry: SLHRQQQQQQQQVPPLP [DLS1]
2.94

Recorded protein stability index of LRLPFSAAMSIDKLSDV [PRP8] , please.
2.3

Endpoint output: protein stability index of MVAYSPIIATYGNRAEQ [SRP68] . Value?
2.78

I am curious: what protein stability index value has been reported for KLQSWDKVSSCFPQYVN [NNF1] ?
2.68

Further cases:
Record request: protein stability index value, item ELESMLEDLKNTKEIAV [RRP6]
2.61

Form field: reported protein stability index of RDHEKDTYRTLMEEIES [YIL149C/MLP2]
3.26

I would be grateful if you could share the reported protein stability index for ANNGAAFSPLTTTRIQS [MED2] .
2.66

// lookup protein stability index for YLREDQMIDTSILPTRD [NUT1]
2.42

Report protein stability index for LEDFENFKGLAKEKERM [YIL149C/MLP2] please.
3.35

Which protein stability index reading was recorded for the sequence YDSRTTIFSPEGRLYQV [PRE9] ?
3.09

###

# procedure-summary: protein stability index of a GFP-peptide fusion (yeast GPS) (PSI 1-4); higher = more stable; sorted into four equal gates, so the index is relative within each strain
# run-conditions: ubr1∆
Note to self: class labels come from recorded protein stability index, ranges listed here: lo (below 2), mid (2 to below 3), hi (3 or more)

Please classify: NFTCNRKILNFKKDLVI [SWI1]
mid

Category lookup for the sequence NPTKSKEILDNILPFLW [ECM29]
mid

Determine which band this sequence sits in: FLPKLNSVRNSLLLAHF [NUT1]
lo

Which class holds DIDLETYSFIDNDRFNV [YML103C/NUP188] ?
mid

Classify this sequence: STLSNWSSEFAKWAPTL [SNF2]
mid

---
Which protein stability index category applies to DPSQNRLTGSLLAHKVA [RPC37] here?
mid

Band for the recorded protein stability index of PVQIVKRITQITIEPGV [RPS20] ?
lo

Which bin, given its protein stability index, does LKETVIPSLANNGNNST [POP6] occupy?
mid

Exam item: assign KQENSSRFTNVSVIAPE [YMR153W/NUP53] to the correct category.
mid

In plain terms, what class is ITSIMDDLALPYQHPPN [ITC1] ?
hi

Pick a category. Item: NVIITGSTSLIEGMEQR [ARP7]
mid

Exercise: read the entry LDSLMKTTRLLLIIRSL [YJL039C/NUP192] and state which class it falls under.
lo

Assign a category based on measured protein stability index for QLAGKSGEDTNVGLPIL [YOR098C/NUP1] and give only the class name.
hi

Where would SGHFSTDSRTGQSTILV [CDC53] land among the classes by reported protein stability index?
hi
